Each entry below carries its recorded ALP.
Species: Rattus norvegicus
Test: Open TG-GATES - Regimen: Single
Assay type: toxicity, organism-based, Sprague-Dawley
Parameters: regimen Single, gender Male, age 6 weeks
Conditions: in vivo, po, 10 mg/kg, 6 h, tissue Plasma, route gavage, dose level Low
Please reply with the bare figure in IU/L and do not write the unit itself.

// below: answered compounds
# compound, ALP / IU/L
measured = [
    ("CC1=C(/C=C/C(C)=C/C=C/C(C)=C/CO)C(C)(C)CCC1", 1760),
    ("CN(C)CCCN1c2ccccc2CCc2ccc(Cl)cc21", 1661),
    ("CN(C)CCCN1c2ccccc2CCc2ccccc21", 1517),
    ("CC(C)OC(=O)C(C)(C)Oc1ccc(C(=O)c2ccc(Cl)cc2)cc1 [FENOFIBRATE]", 1504.8),
]

# evaluate next
stdin: Read the entry `CN(C)CCN(Cc1cccs1)c1ccccn1` and write its reported ALP.
stdout: 1485.8
